Measured values drawn from paper PMC6849653 for this set.

// reported pIC50 for each item listed
- Test system: normal human hepatocytes
- assayName: 60-agent chemical screen, cell viability (Cell-Titer Glo), hepatocytes
- Assay type: cell-based
- runParameters: Hepatocyte, 60-agent screen, 72 hours, a value of 10,000 indicates that the drug did not inhibit viability, read-out: absolute IC50, Hepatocytes
pIC50: −log10 of the molar value. Counter-ions that a name gives are not always drawn.

# compound, assayTarget, comparisonSymbol, pIC50
data = [
    ("CN(C)C(=N)N=C(N)N [metformin HCL]", "normal human hepatocytes", "<", 5.00),
    ("Cc1ccc(-c2cc(C(F)(F)F)nn2-c2ccc(S(N)(=O)=O)cc2)cc1 [celecoxib]", "normal human hepatocytes", "<", 5.00),
    ("C[C@@H](Oc1ccc2[nH]nc(/C=C/c3cnn(CCO)c3)c2c1)c1c(Cl)cncc1Cl [LY2874455]", "normal human hepatocytes", "=", 5.66),
    ("Cc1cc(-c2ncc(CC(=O)Nc3ccc(-c4cnccn4)cn3)cc2C)ccn1 [LGK974]", "normal human hepatocytes", "=", 5.11),
    ("O=C(O)c1ccc2c(c1)nc(Nc1cccc(Cl)c1)c1ccncc12 [CX-4945]", "normal human hepatocytes", "<", 5.00),
    ("C[C@@H](Oc1cc(-c2cnn(C3CCNCC3)c2)cnc1N)c1c(Cl)ccc(F)c1Cl [crizotinib]", "normal human hepatocytes", "=", 5.66),
    ("CC(=O)Nc1cccc(-n2c(=O)n(C3CC3)c(=O)c3c(Nc4ccc(I)cc4F)n(C)c(=O)c(C)c32)c1 [trametinib]", "normal human hepatocytes", "<", 5.00),
    ("O=c1ncccn1[C@@H]1O[C@H](CO)[C@@H](O)[C@H]1O [zebularine]", "normal human hepatocytes", "<", 5.00),
    ("C=CCn1c(=O)c2cnc(Nc3ccc(N4CCN(C)CC4)cc3)nc2n1-c1cccc(C(C)(C)O)n1 [MK-1775]", "normal human hepatocytes", "<", 5.00),
    ("CCc1cnn2c(NCc3ccc[n+]([O-])c3)cc(N3CCCC[C@H]3CCO)nc12 [dinaciclib]", "normal human hepatocytes", "=", 9.00),
    ("CNC(=O)CN1CCC(Oc2cc3c(Nc4cccc(Cl)c4F)ncnc3cc2OC)CC1 [AZD8931]", "normal human hepatocytes", "=", 5.84),
]

###

- Tested on: six hepatoblastoma cell cultures
- assayName: Cell proliferation study, six hepatoblastoma cell cultures together
- Type: cell-based, human
- runParameters: Homo sapiens; range over HB-214, HB-243, HB-279, HB-282, HB-284, HB-295; read-out: IC50 across all six hepatoblastoma cell cultures
- Description: On day 0, cells were trypsinized and plated into white walled 384-well plates. […] Absolute IC50 values were calculated using GraphPad Prism (GraphPad, San Diego, CA). Synergy values were calculated using CalcuSyn (Biosoft, Cambridge, UK) software.

# molecule, IC50
rows = [
    ("CC[C@@H]1C(=O)N(C)c2cnc(Nc3ccc(C(=O)N[C@H]4CC[C@H](N5CCN(CC6CC6)CC5)CC4)cc3OC)nc2N1C(C)C", "< 10 µM"),
]

###

// reported IC50 for each item listed
- Test system: normal human hepatocytes
- assayName: 60-agent chemical screen, cell viability (Cell-Titer Glo), hepatocytes;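 also: cells were plated onto pre-diluted drug concentrations in 384-well plates, and viability was read after 72 h as CellTiter-Glo 2.0 luminescence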
- Format: cell-based
- runParameters: Hepatocyte, 60-agent screen, 72 hours, a value of 10,000 indicates that the drug did not inhibit viability, read-out: absolute IC50, Hepatocytes
Counter-ions that a name gives are not always drawn.
measuredAttribute: IC50 (nM)

# compound, assayTarget, measuredAttribute, comparisonSymbol, measuredResult
records = [
    ("CC(C)n1nc(-c2ccc3oc(N)nc3c2)c2c(N)ncnc21", "normal human hepatocytes", "IC50", "=", 7),
    ("CCCc1c(OCCCOc2cc(O)c(-c3ccc(F)cc3)cc2CC)cccc1Oc1ccccc1C(=O)O", "normal human hepatocytes", "IC50", ">", 10000),
    ("Cn1c(=O)n(-c2ccc(C(C)(C)C#N)cc2)c2c3cc(-c4cnc5ccccc5c4)ccc3ncc21", "normal human hepatocytes", "IC50", "=", 48),
    ("C=C[C@@]1(C)CC(=O)[C@]2(O)[C@@]3(C)[C@@H](O)CCC(C)(C)[C@@H]3[C@H](O)[C@H](OC(C)=O)[C@@]2(C)O1", "normal human hepatocytes", "IC50", ">", 10000),
    ("Cc1cc(Nc2cc(N3CCN(C)CC3)nc(Sc3ccc(NC(=O)C4CC4)cc3)n2)[nH]n1", "normal human hepatocytes", "IC50", ">", 10000),
    ("N#CC[C@H](C1CCCC1)n1cc(-c2ncnc3[nH]ccc23)cn1", "normal human hepatocytes", "IC50", ">", 10000),
    ("CN1CCc2c(c3ccccc3n2Cc2ccc(C(=O)NO)cc2)C1", "normal human hepatocytes", "IC50", ">", 10000),
    ("CCOC(=O)CCNc1cc(N2CCc3ccccc3CC2)nc(-c2ccccn2)n1 [GSK-J4 HCl]", "normal human hepatocytes", "IC50", ">", 10000),
    ("CC(=O)c1c(C)c2cnc(Nc3ccc(N4CCNCC4)cn3)nc2n(C2CCCC2)c1=O", "normal human hepatocytes", "IC50", ">", 10000),
    ("COc1cc2nc(N3CCCN(C)CC3)nc(NC3CCN(Cc4ccccc4)CC3)c2cc1OC", "normal human hepatocytes", "IC50", "=", 2040),
    ("COc1ccc(C[C@@H](C)[C@@H](C)Cc2ccc(OC)c(OC)c2)cc1OC", "normal human hepatocytes", "IC50", ">", 10000),
    ("COc1cccc(OCCCN)c1-c1cc(Nc2cnc(C#N)cn2)n[nH]1", "normal human hepatocytes", "IC50", ">", 10000),
    ("C[C@]1(O)C[C@@H](c2nc(-c3ccc4ccc(-c5ccccc5)nc4c3)c3c(N)nccn32)C1", "normal human hepatocytes", "IC50", "=", 5900),
    ("CC(C)N(CCCNC(=O)Nc1ccc(C(C)(C)C)cc1)C[C@H]1O[C@@H](n2cc(Br)c3c(N)ncnc32)[C@H](O)[C@@H]1O", "normal human hepatocytes", "IC50", "=", 510),
    ("CCOc1cc(C(C)(C)C)ccc1C1=N[C@@](C)(c2ccc(Cl)cc2)[C@@](C)(c2ccc(Cl)cc2)N1C(=O)N1CCN(CCCS(C)(=O)=O)CC1", "normal human hepatocytes", "IC50", ">", 10000),
    ("Cc1[nH]c2ccccc2c1CCNCc1ccc(/C=C/C(=O)NO)cc1", "normal human hepatocytes", "IC50", "=", 39),
    ("CC(C)(C)Cn1c(N)nc2ccc(-c3[nH]c(C(C)(C)C)nc3-c3ccc(F)cc3)nc21", "normal human hepatocytes", "IC50", "=", 76),
    ("CN[C@@H](C)C(=O)N[C@H](C(=O)N1CCC[C@H]1c1nc(C(=O)c2ccc(F)cc2)cs1)C1CCCCC1", "normal human hepatocytes", "IC50", ">", 10000),
    ("CC1(C)CCC(c2ccc(Cl)cc2)=C(CN2CCN(c3ccc(C(=O)NS(=O)(=O)c4ccc(N[C@H](CCN5CCOCC5)CSc5ccccc5)c(S(=O)(=O)C(F)(F)F)c4)cc3)CC2)C1", "normal human hepatocytes", "IC50", ">", 10000),
    ("COCCn1c2c([n+](Cc3cnccn3)c1C)C(=O)c1ccccc1C2=O", "normal human hepatocytes", "IC50", "=", 34),
    ("CO[C@H]1C[C@@H]2CC[C@@H](C)[C@@](O)(O2)C(=O)C(=O)N2CCCC[C@H]2C(=O)O[C@H]([C@H](C)C[C@@H]2CC[C@@H](O)[C@H](OC)C2)CC(=O)[C@H](C)/C=C(\\C)[C@@H](O)[C@@H](OC)C(=O)[C@H](C)C[C@H](C)/C=C/C=C/C=C/1C", "normal human hepatocytes", "IC50", ">", 10000),
    ("Nc1nc(O)c2ncn(COC(CO)CO)c2n1", "normal human hepatocytes", "IC50", ">", 10000),
    ("CN(C(=O)c1ccc(F)cc1C(F)(F)F)C1CCN(c2nnc(-c3ccnn3C)c3ccccc23)CC1", "normal human hepatocytes", "IC50", ">", 10000),
    ("Nc1nc2[nH]cc(CCc3ccc(C(=O)N[C@@H](CCC(=O)O)C(=O)O)cc3)c2c(=O)[nH]1", "normal human hepatocytes", "IC50", ">", 10000),
    ("Nc1ccccc1NC(=O)c1ccc(CNC(=O)OCc2cccnc2)cc1", "normal human hepatocytes", "IC50", "=", 217),
    ("CC(C)(C(=O)NCC(F)(F)C(F)(F)F)C(=O)N[C@@H]1C(=O)Nc2ccccc2-c2ccccc21", "normal human hepatocytes", "IC50", ">", 10000),
    ("O=C1NC(=O)C(c2cnc3ccccn23)=C1c1cn2c3c(cc(F)cc13)CN(C(=O)N1CCCCC1)CC2", "normal human hepatocytes", "IC50", "=", 837),
    ("Cc1nc(Nc2ncc(C(=O)Nc3c(C)cccc3Cl)s2)cc(N2CCN(CCO)CC2)n1", "normal human hepatocytes", "IC50", ">", 10000),
    ("C/C=C(/C)C(=O)O[C@H]1C(C)=C2[C@H]([C@@H]1OC(=O)CCCCCCC)[C@@](C)(OC(C)=O)C[C@H](OC(=O)CCC)[C@@]1(O)[C@H]2OC(=O)[C@@]1(C)O", "normal human hepatocytes", "IC50", "=", 519),
    ("CN1CCC(CNc2ccc3ncc(-c4cccc(OC(F)(F)F)c4)n3n2)CC1", "normal human hepatocytes", "IC50", "=", 233),
]
